These measurements were taken from paper PMC11447708.

# Tested on: MRSA
# Procedure text: agar well diffusion, zone of inhibition
# Type: cell-based, Staphylococcus aureus
# Condition description: concentration (μg): 20 for 1-3, 10 for ampicillin and tobramycin, 30 for tetracycline
# inhibition zone diameter MRSA per record follows

>  <Compound>
CC1(C)S[C@@H]2[C@H](NC(=O)[C@H](N)c3ccccc3)C(=O)N2[C@H]1C(=O)O

>  <inhibition zone diameter MRSA>
18 mm

$$$$
>  <Compound>
CC(=O)c1c(O)ccc(Br)c1O [compound 2, 3-Bromo-2,6-dihydroxyacetophenone]

>  <inhibition zone diameter MRSA>
30 mm

$$$$
>  <Compound>
CN(C)[C@@H]1C(O)=C(C(N)=O)C(=O)[C@@]2(O)C(O)=C3C(=O)c4c(O)cccc4[C@@](C)(O)[C@H]3C[C@@H]12

>  <inhibition zone diameter MRSA>
12 mm

$$$$

Entry CC(=O)c1cc(Br)c(O)c(Br)c1O [compound 3, 3,5-Dibromo-2,4-dihydroxyacetophenone] — recorded inhibition zone diameter MRSA = 20 mm

Entry "NC[C@H]1O[C@H](O[C@H]2[C@H](O)[C@@H](O[C@H]3O[C@H](CO)[C@@H](O)[C@H](N)[C@H]3O)[C@H](N)C[C@@H]2N)[C@H](N)C[C@@H]1O" — recorded inhibition zone diameter MRSA = 12 mm

* * *

# Test system: HEK-293 cells
# Procedure text: AlamarBlue cell viability assay
# Format: cell-based
# Condition description: Homo sapiens, HEK293, 24 h exposure
Quantity kind: IC50 (µM)
Provide the reading as a plain figure in µM.

Readout IC50 for CC(=O)c1c(O)ccc(Br)c1O [compound 2, 3-Bromo-2,6-dihydroxyacetophenone] , test system HEK-293 cells, was 31.1

* * *

# Tested on: P. aeruginosa
# Procedure text: microbroth dilution assay (MIC, resazurin)
# Format: cell-based, Pseudomonas aeruginosa
# Condition description: Pseudomonas aeruginosa; 18 h, 37 °C
Quantity kind: MIC (µg/mL)
Provide the reading as a plain figure in µg/mL.

>  <Compound>
NC[C@H]1O[C@H](O[C@H]2[C@H](O)[C@@H](O[C@H]3O[C@H](CO)[C@@H](O)[C@H](N)[C@H]3O)[C@H](N)C[C@@H]2N)[C@H](N)C[C@@H]1O

>  <MIC, µg/mL>
15

$$$$
>  <Compound>
CC(=O)c1c(O)ccc(Br)c1O [compound 2, 3-Bromo-2,6-dihydroxyacetophenone]

>  <MIC, µg/mL>
780

$$$$
>  <Compound>
CN(C)[C@@H]1C(O)=C(C(N)=O)C(=O)[C@@]2(O)C(O)=C3C(=O)c4c(O)cccc4[C@@](C)(O)[C@H]3C[C@@H]12

>  <MIC, µg/mL>
70

$$$$

--- query ---
Entry CC(=O)c1cc(Br)c(O)c(Br)c1O [compound 3, 3,5-Dibromo-2,4-dihydroxyacetophenone] — recorded MIC = 780
